Below, each entry is listed alongside its reported TGI.
Test system: SF-268 CNS
Experiment: NCI tumour cell line growth inhibition, 48 h

Value of measured TGI for the entry CN=C(N)c1ccc(N=C(N)c2ccc(-c3ccc(C(N)=Nc4ccc(C(N)=NC)cc4)cc3)cc2)cc1 : > 100 µM

Value of measured TGI for the entry CC1CC2C3CCC4=CC(=O)C=CC4(C)C3(F)C(O)CC2(C)C1(O)C(=O)COP(=O)(O)O (stereo not given) : > 500 µM

Value of measured TGI for the entry COc1ccc(C(O)/C(=N/N)c2nc3ccc(Cl)cc3[nH]c2=O)cc1 (stereo not given) : > 100 µM

Value of measured TGI for the entry Nc1nnc2c(-c3ccccc3)[nH]nc2n1 : 58.7 µM

Value of measured TGI for the entry CC1=NN(c2nc(N)nc(NS(=O)(=O)c3cc(C)c(Cl)cc3S)n2)C(C)(C)C1 : > 10 µM

Value of measured TGI for the entry CCOC1=C2N=C(C(CC)c3ccccc3F)N=C2C(=O)c2ccccc21 (stereo not given) : > 100 µM

Value of measured TGI for the entry CC(CSC(=N)N)C(N)=O (stereo not given) : > 100 µM

Value of measured TGI for the entry CC(=O)CCCCn1c(=O)c2c(nc(Br)n2C)n(C)c1=O : > 100 µM

Value of measured TGI for the entry COc1ccc(C2c3cc4c(cc3OC(NNc3ccccc3)C2C)OCO4)cc1 (stereo not given) : > 100 µM

Value of measured TGI for the entry FC(F)(F)c1ccc2c(c1)N(CCCNCCN1CCOCC1)c1ccccc1S2 : 37.2 µM

Source listed as PubChem BioAssay (NCI).
